Entry source: patent US9315490B2

Tested target: human PDE4B1 (Homo sapiens)
Construct: host or cells: Sf9 cells
Assay text: TR-FRET assay using the LANCE Ultra cAMP kit to determine the activity of hPDE4B1
Format: biochemical
Condition description: test concentration 1 μM, read-out: Inhibition in % (inhibition of PDE4B)

Compound	Tested target	Display unit	inhibition at 1 µM
C[S+]([O-])c1cn(-c2ncc(-c3ccccc3F)cn2)c2cc(C(=O)N3CC=CCC3)ccc12 (stereo not shown)	human PDE4B1 (Homo sapiens)	%	80
C[S+]([O-])c1cn(-c2ncc(-c3cc(C4CC4)ccn3)cn2)c2cc(C(=O)N3CCOCC3)ccc12 (stereo not shown)	human PDE4B1 (Homo sapiens)	%	92
CC(C)c1ccnc(-c2cnc(-n3cc([S+](C)[O-])c4ccc(C(=O)N5CCOCC5)cc43)nc2)c1 (stereo not shown)	human PDE4B1 (Homo sapiens)	%	96
CC#Cc1ccnc(-c2cnc(-n3cc([S+](C)[O-])c4ccc(C(=O)N5CCOCC5)cc43)nc2)c1 (stereo not shown)	human PDE4B1 (Homo sapiens)	%	93
Cc1csc(-c2cnc(-n3cc([S+](C)[O-])c4ccc(C(=O)N5CCOCC5)cc43)nc2)c1 (stereo not shown)	human PDE4B1 (Homo sapiens)	%	96
CCc1ccc(F)c(-c2cnc(-n3cc([S+](C)[O-])c4ccc(C(=O)N(C)C)cc43)nc2)c1 (stereo not shown)	human PDE4B1 (Homo sapiens)	%	104
CN(CCCO)C(=O)c1ccc2c([S+](C)[O-])cn(-c3ncc(-c4ccccc4F)cn3)c2c1 (stereo not shown)	human PDE4B1 (Homo sapiens)	%	82

---

Tested target: human PDE4B1 (Homo sapiens, UniProt Q07343)
Construct: host or cells: Sf9 cells
Sequence (Q07343 whole entry): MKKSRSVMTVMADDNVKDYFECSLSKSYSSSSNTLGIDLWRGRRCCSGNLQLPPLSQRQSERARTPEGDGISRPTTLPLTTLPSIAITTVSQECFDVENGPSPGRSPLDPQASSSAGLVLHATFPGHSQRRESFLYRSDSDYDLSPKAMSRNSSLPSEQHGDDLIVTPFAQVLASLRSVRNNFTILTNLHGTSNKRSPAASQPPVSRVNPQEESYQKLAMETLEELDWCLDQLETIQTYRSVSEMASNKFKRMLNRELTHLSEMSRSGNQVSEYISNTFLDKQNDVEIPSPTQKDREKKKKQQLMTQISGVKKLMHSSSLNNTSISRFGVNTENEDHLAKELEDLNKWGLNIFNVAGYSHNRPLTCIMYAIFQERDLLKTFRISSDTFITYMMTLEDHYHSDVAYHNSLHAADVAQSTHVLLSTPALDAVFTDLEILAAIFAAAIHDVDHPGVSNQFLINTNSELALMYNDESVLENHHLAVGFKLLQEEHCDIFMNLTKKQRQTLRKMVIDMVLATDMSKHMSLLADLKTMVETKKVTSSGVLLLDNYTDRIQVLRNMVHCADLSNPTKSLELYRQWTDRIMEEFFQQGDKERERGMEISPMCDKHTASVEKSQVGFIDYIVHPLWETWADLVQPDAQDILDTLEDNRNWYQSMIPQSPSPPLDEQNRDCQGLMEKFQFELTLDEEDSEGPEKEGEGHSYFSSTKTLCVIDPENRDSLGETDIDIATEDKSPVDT
Assay text: TR-FRET assay using the LANCE Ultra cAMP kit to determine the activity of hPDE4B1
Format: biochemical
Condition description: test concentration 10 μM (marked in cell), read-out: Inhibition in % (inhibition of PDE4B)
Catalogue of inhibition at 10 µM readings, one per entry.

Molecule	Display unit	inhibition at 10 µM
Cc1cccc(-c2cnc(-n3cc([S+](C)[O-])c4ccc(C(=O)N(C)C)cc43)nc2)n1 (stereo not drawn) [Example 314]	%	98
COc1ccnc(-c2cnc(-n3cc([S+](C)[O-])c4ccc(C(=O)N5CCCC5)cc43)nc2)c1 (stereo not drawn) [Example 342]	%	113
C[S+]([O-])c1cn(-c2ncc(-c3cc(N4CCCC4)ccn3)cn2)c2cc(C(=O)N3CCOCC3)ccc12 (stereo not drawn) [Example 301]	%	99
Cc1ccc(F)c(-c2cnc(-n3cc(C(C)O)c4ccc(C(=O)N5CC[C@@H](N)C5)cc43)nc2)c1 (stereo partly drawn) [Example 321]	%	143
CCOc1ccnc(-c2cnc(-n3cc([S+](C)[O-])c4ccc(C(=O)N5CCCC5)cc43)nc2)c1 (stereo not drawn) [Example 343]	%	100
CCc1ccnc(-c2cnc(-n3cc(S(C)(=O)=O)c4ccc(C(=O)N5CCOCC5)cc43)nc2)c1 [Example 325]	%	91
CN(CC(N)=O)C(=O)c1ccc2c([S+](C)[O-])cn(-c3ncc(-c4cc(C(C)(C)O)ccc4F)cn3)c2c1 (single isomer, unassigned) [Example 334]	%	99
CS(=O)(=O)c1cn(-c2ncc(-c3ccccc3F)cn2)c2cc(C(=O)N3C[C@@H]4C[C@H]3CO4)ccc12 [Example 309]	%	97
CNC(=O)CN(C)C(=O)c1ccc2c(S(C)(=O)=O)cn(-c3ncc(-c4cc(C)ccc4F)cn3)c2c1 [Example 305]	%	85
CS(=O)(=O)c1cn(-c2ncc(-c3cc(Cl)ccn3)cn2)c2cc(C(=O)N3CCOCC3)ccc12 [Example 312]	%	93
C[S+]([O-])c1cn(-c2ncc(-c3ccccc3F)cn2)c2cc(C(=O)N3CC4CCC3CN4)ccc12 (stereo not drawn) [Example 347]	%	97
CCNc1ccc(F)c(-c2cnc(-n3cc([S+](C)[O-])c4ccc(C(=O)N5CCOCC5)cc43)nc2)c1 (stereo not drawn) [Example 292]	%	91
CCc1ccc(F)c(-c2cnc(-n3cc(S(C)(=O)=O)c4ccc(C(=O)N(C)CC(N)=O)cc43)nc2)c1 [Example 311]	%	98
COc1ccc(F)c(-c2cnc(-n3cc(S(C)(=O)=O)c4ccc(C(=O)N(C)CC(N)=O)cc43)nc2)c1 [Example 310]	%	91
CC(C)c1ccnc(-c2cnc(-n3cc([S+](C)[O-])c4ccc(C(=O)N5CC[C@@H](N)C5)cc43)nc2)c1 (stereo partly drawn) [Example 338]	%	99
